# Tested on: NCI-H2347
# TEST_DETAILS: relative viability (nuclei count vs DMSO), 5 days (fraction); higher = more cells survive
# MEASUREMENT_SETUP: first compound 0.8 µM
# if measured relative viability < 0.6: Condition met  # else: Condition not met

{"COMPOUND": "COc1nc(C)cnc1NS(=O)(=O)c1cccnc1-c1ccc(-c2nnco2)cc1 [Zibotentan] + O=C(CCCCCCC(=O)Nc1ccccc1)NO [Vorinostat] (partner 1 µM)", "ASSIGNED_CATEGORY": "Condition not met"}
{"COMPOUND": "COc1nc(C)cnc1NS(=O)(=O)c1cccnc1-c1ccc(-c2nnco2)cc1 [Zibotentan] + Cc1cc(Nc2cc(N3CCN(C)CC3)nc(Sc3ccc(NC(=O)C4CC4)cc3)n2)n[nH]1 [Tozasertib] (partner 0.1 µM)", "ASSIGNED_CATEGORY": "Condition met"}
{"COMPOUND": "O=c1cc(-c2cccc3c2Sc2ccccc2S3)oc(N2CCOCC2)c1 + Nc1nc2[nH]cc(CCc3ccc(C(=O)N[C@@H](CCC(=O)O)C(=O)O)cc3)c2c(=O)[nH]1 [Pemetrexed] (partner 0.2 µM)", "ASSIGNED_CATEGORY": "Condition met"}
{"COMPOUND": "COc1nc(C)cnc1NS(=O)(=O)c1cccnc1-c1ccc(-c2nnco2)cc1 [Zibotentan] + C[C@]1(O)C[C@@H](c2nc(-c3ccc4ccc(-c5ccccc5)nc4c3)c3c(N)nccn32)C1 [Linsitinib] (partner 1 µM)", "ASSIGNED_CATEGORY": "Condition not met"}
{"COMPOUND": "COc1nc(C)cnc1NS(=O)(=O)c1cccnc1-c1ccc(-c2nnco2)cc1 [Zibotentan] + C[C@@H](Oc1cc(-c2cnn(C3CCNCC3)c2)cnc1N)c1c(Cl)ccc(F)c1Cl [Crizotinib] (partner 1 µM)", "ASSIGNED_CATEGORY": "Condition not met"}
{"COMPOUND": "COc1nc(C)cnc1NS(=O)(=O)c1cccnc1-c1ccc(-c2nnco2)cc1 [Zibotentan] + CCNC(=O)c1noc(-c2cc(C(C)C)c(O)cc2O)c1-c1ccc(CN2CCOCC2)cc1 [Luminespib] (partner 0.01 µM)", "ASSIGNED_CATEGORY": "Condition met"}

====

# System: HCC-827
# TEST_DETAILS: relative viability (nuclei count vs DMSO), 5 days (fraction); higher = more cells survive
# MEASUREMENT_SETUP: first compound 0.08 µM
Listed here: items and their measured relative viability.

{"COMPOUND": "O=c1cc(-c2cccc3c2Sc2ccccc2S3)oc(N2CCOCC2)c1 + O=C(c1cc(Cc2n[nH]c(=O)c3ccccc23)ccc1F)N1CCN(C(=O)C2CC2)CC1 [Olaparib] (partner 8 µM)", "relative viability": 0.621}
{"COMPOUND": "O=c1cc(-c2cccc3c2Sc2ccccc2S3)oc(N2CCOCC2)c1 + O=C(CCCCCCC(=O)Nc1ccccc1)NO [Vorinostat] (partner 1 µM)", "relative viability": 0.768}
{"COMPOUND": "O=c1cc(-c2cccc3c2Sc2ccccc2S3)oc(N2CCOCC2)c1 + COc1cc2c(Oc3ccc(NC(=O)C4(C(=O)Nc5ccc(F)cc5)CC4)cc3F)ccnc2cc1OCCCN1CCOCC1 [Foretinib] (partner 0.25 µM)", "relative viability": 0.94}
{"COMPOUND": "O=c1cc(-c2cccc3c2Sc2ccccc2S3)oc(N2CCOCC2)c1 + Nc1ncn([C@H]2C[C@H](O)[C@@H](CO)O2)c(=O)n1 [Decitabine] (partner 2 µM)", "relative viability": 0.266}
{"COMPOUND": "O=c1cc(-c2cccc3c2Sc2ccccc2S3)oc(N2CCOCC2)c1 + NC(=O)Nc1cc(-c2cccc(F)c2)sc1C(=O)N[C@H]1CCCNC1 [AZD7762] (partner 0.2 µM)", "relative viability": 0.199}
